# Assay system: Acyl-protein thioesterase 2 (Homo sapiens) (UniProt O95372)
# Sequence (O95372 whole entry, looked up): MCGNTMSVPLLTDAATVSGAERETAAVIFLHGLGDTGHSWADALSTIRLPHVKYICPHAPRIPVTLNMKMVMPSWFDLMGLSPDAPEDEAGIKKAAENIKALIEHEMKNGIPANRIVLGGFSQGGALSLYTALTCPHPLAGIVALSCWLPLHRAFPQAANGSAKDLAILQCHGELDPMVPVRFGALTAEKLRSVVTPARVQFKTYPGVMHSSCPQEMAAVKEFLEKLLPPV
# Test summary: LYPLA2 inhibitors, primary screen, counter-screen for PME1 inhibitor project, biochemical, fluorescence polarization, FP-Rh probe ABPP (AID 2177);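 note: 0% = LYPLA2 with DMSO and 100% = wells lacking LYPLA2 enzyme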
# Cond: recombinant LYPLA2, FP-Rh probe fluorescence polarization; at 5.9 µM; stronger effect = higher value
The campaign covered roughly 320,000 compounds. About 1,200 (0.38%) were called active. Only a selection was taken, and actives are over-represented in it overall.
Reported property: inhibition (%)
Give a bare numeral; the unit % is implied.

Here's what some known entries look like.
Problem: What inhibition value was documented for this molecule, CCC(=O)c1ccc(OCC(O)CN2CCN(c3cccc(C(F)(F)F)c3)CC2)cc1 (centres undefined) ?
Solution: 64.8

Problem: What inhibition value was documented for this molecule, N#Cc1cc([N+](=O)[O-])ccc1Oc1cccc(/C=N/NC(=O)c2ccc(Cl)cc2)c1 ?
Solution: 36.9

Problem: What inhibition value was documented for this molecule, CCOc1ccccc1N1CCN(C(=O)COc2ccc3c(C)cc(=O)oc3c2)CC1 ?
Solution: -4.36

Others:
Problem: What inhibition value was documented for this molecule, O=C(COc1ccc(Cl)cc1)N1CCN(c2cccc(C(F)(F)F)c2)CC1 ?
Solution: 69.5

Problem: What inhibition value was documented for this molecule, Cc1cc(C)n(CC(=O)Nc2ccc([N+](=O)[O-])cc2)n1 ?
Solution: -3.9

Problem: What inhibition value was documented for this molecule, O=C(N/N=C/c1cccc(OC(=O)c2ccc([N+](=O)[O-])cc2)c1)c1cccnc1 ?
Solution: -5.79

Problem: What inhibition value was documented for this molecule, Cc1nc([N+](=O)[O-])cn1CC(=O)Nc1ccc2c(c1)OCO2 ?
Solution: 27.6

Problem: What inhibition value was documented for this molecule, CC(=O)N1c2ccc(S(=O)(=O)N3CCC(C(=O)NC4CCCC(C)C4C)CC3)cc2CC1C (centres undefined) ?
Solution: -4.4

Problem: What inhibition value was documented for this molecule, CC(=O)c1ccc(N2CCN(C(=O)C3CCN(S(=O)(=O)c4ccc5c(c4)CC(C)N5C(=O)C4CC4)CC3)CC2)cc1 (centres undefined) ?
Solution: 75

====

# Assay system: Acyl-protein thioesterase 2 (Homo sapiens) (UniProt O95372)
# Test summary: LYPLA2 inhibitors, primary screen, counter-screen for PME1 inhibitor project, biochemical, fluorescence polarization, FP-Rh probe ABPP (AID 2177);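 note: 0% = LYPLA2 with DMSO and 100% = wells lacking LYPLA2 enzyme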
# Cond: recombinant LYPLA2, FP-Rh probe fluorescence polarization; at 5.9 µM; stronger effect = higher value
In all, about 320,000 compounds went through this assay and about 1,200 (0.38%) were called active. The list comes from a sample in which actives are over-represented; it also holds close analogues and randomly drawn compounds.
# key: entry, value: inhibition
Give a bare numeral; the unit % is implied.

Problem: Request - read-out inhibition | tested on Acyl-protein thioesterase 2 (Homo sapiens) (UniProt O95372) | molecule CN(CCC(=O)Nc1cc(S(=O)(=O)N(C)C)ccc1Cl)CC(=O)Nc1ccc(F)cc1
Solution: -4.23

Problem: Request - read-out inhibition | tested on Acyl-protein thioesterase 2 (Homo sapiens) (UniProt O95372) | molecule O=[N+]([O-])c1ccc(F)cc1Oc1nc(-c2cccnc2)nc2ccccc12
Solution: -3.66

Problem: Request - read-out inhibition | tested on Acyl-protein thioesterase 2 (Homo sapiens) (UniProt O95372) | molecule Cc1c(CC(=O)NCC(=O)NCC(=O)O)c(=O)oc2cc3oc4c(c3cc12)CCCC4
Solution: 4.77

Others:
Problem: Request - read-out inhibition | tested on Acyl-protein thioesterase 2 (Homo sapiens) (UniProt O95372) | molecule CCN(CC)C(=O)CSc1nnc(C2CCCCC2)o1
Solution: 6.58

Problem: Request - read-out inhibition | tested on Acyl-protein thioesterase 2 (Homo sapiens) (UniProt O95372) | molecule CCC(NC(=O)C1CCCC1)c1ccc(C)cc1 (configuration not stated)
Solution: 0.26

Problem: Request - read-out inhibition | tested on Acyl-protein thioesterase 2 (Homo sapiens) (UniProt O95372) | molecule Oc1c(C(c2cccs2)N2CCN(c3ccc(F)cc3)CC2)sc2ncnn12 (configuration not stated)
Solution: -5.69

Problem: Request - read-out inhibition | tested on Acyl-protein thioesterase 2 (Homo sapiens) (UniProt O95372) | molecule CN=C1S/C(=C\c2c(OC)cc(OC)cc2OC)C(=O)N1C
Solution: -0.06

Problem: Request - read-out inhibition | tested on Acyl-protein thioesterase 2 (Homo sapiens) (UniProt O95372) | molecule Cc1ccc(S(=O)(=O)N(CC(=O)NCc2ccco2)c2ccccc2C)cc1
Solution: -4.36

Problem: Request - read-out inhibition | tested on Acyl-protein thioesterase 2 (Homo sapiens) (UniProt O95372) | molecule O=[N+]([O-])c1ccc(Oc2ccc(F)cc2Br)c2ccncc12
Solution: 41.4

Problem: Request - read-out inhibition | tested on Acyl-protein thioesterase 2 (Homo sapiens) (UniProt O95372) | molecule COc1ccc(NC(=O)COC(=O)c2ccc(NS(=O)(=O)/C=C/c3ccccc3)cc2)cc1
Solution: -12

Problem: Request - read-out inhibition | tested on Acyl-protein thioesterase 2 (Homo sapiens) (UniProt O95372) | molecule COC(=O)c1cccc(-n2[nH]nnc2=S)c1
Solution: -1.32

Problem: Request - read-out inhibition | tested on Acyl-protein thioesterase 2 (Homo sapiens) (UniProt O95372) | molecule CCOc1cc(S(=O)(=O)NCc2ccc3c(c2)OCO3)ccc1F
Solution: 7.67

Problem: Request - read-out inhibition | tested on Acyl-protein thioesterase 2 (Homo sapiens) (UniProt O95372) | molecule COc1ccc(C(=O)OCC(=O)NC(=O)CCSc2ccccc2)cc1
Solution: 28.6

Problem: Request - read-out inhibition | tested on Acyl-protein thioesterase 2 (Homo sapiens) (UniProt O95372) | molecule Cc1[nH]c2ccccc2c1C(=O)C(C)Sc1nnc(C2CC2)o1 (configuration not stated)
Solution: 1.82

Problem: Request - read-out inhibition | tested on Acyl-protein thioesterase 2 (Homo sapiens) (UniProt O95372) | molecule Cc1nn(-c2ccccc2)c2c1c(C)c(CCC(=O)NCC1CCCO1)c(=O)n2C (configuration not stated)
Solution: 0.8

Problem: Request - read-out inhibition | tested on Acyl-protein thioesterase 2 (Homo sapiens) (UniProt O95372) | molecule O=C(COC(=O)c1ccccc1)Nc1ccccc1Sc1ccccc1
Solution: -10.2

Problem: Request - read-out inhibition | tested on Acyl-protein thioesterase 2 (Homo sapiens) (UniProt O95372) | molecule c1ccc(-c2ccnc3nc(-n4cccc4)nn23)cc1
Solution: 5.32

These entries and their values trace back to PubChem BioAssay AID2177.
